Assay: Solubility (Test F)
Type: physicochemical
Conditions: arithmetic mean if run multiple times
RECORDED_ENDPOINT: solubility (µM)

See these solved cases before continuing.
>>> observed("COc1cc(C)c(O[C@H]2CC[C@@](C)(C(=O)O)CC2)cc1C(=O)N[C@@H]1[C@H]2CC[C@H](C2)[C@@H]1C(=O)NCC1(C)CCC1 [Example 375]")
240
>>> observed("COc1cc(F)c(O[C@H]2CC[C@@](C)(C(=O)O)CC2)cc1C(=O)N[C@@H]1[C@H]2CC[C@H](C2)[C@@H]1C(=O)N[C@@H]1CCN(S(=O)(=O)C(F)(F)F)C1 [Example 605]")
890

I: COc1cc(F)c(O[C@H]2CC[C@@](C)(C(=O)O)CC2)cc1C(=O)N[C@@H]1COC[C@@H]1C(=O)Nc1ccc(F)c(C(F)(F)F)c1 [Example 52]
II: COc1cc(F)c(O[C@H]2CC[C@@](C)(C(=O)O)CC2)cc1C(=O)N[C@@H]1CCC[C@@H]1C(=O)Nc1cccc(S(=O)(=O)C(F)(F)F)c1 [Example 351]
Q: For this pair, I and II , which shows a numerically higher solubility? Kindly state the label of the option you pick.
Ans: I

Data origin, for the record: patent US11667602B2
